measured_on: T1, CD47 on the surface of CHO-K1-E5 cells (human, UniProt Q08722 19-323)
T1 construct: Full length CD47 expressed from pTargeT-CD47 in CHO-K1 cells; also called CD47 on cell surface; CHO-K1-hCD47
test_protocol: cell based ELISA on fixed CHO-K1-E5 cells, anti-human IgG HRP, OD450
reported_endpoint: EC50 (read off the curve)

I am curious: what EC50 (read off the curve) value has been reported for Hu58A-14-PE (antibody, IgG4, V domains shown, also called humanized anti-CD47 antibody Hu58A-14-PE) VH: EVQLLESGGGLVQPGGSLRLSCAASGFIFSRFGMAWVRQTPDKRLEWVATISSGGSYTYYPDSVKGRLTISRDNAKTTLYLQMRSLKSEDTAMYYCARQGLLDYLYALDYWGQGTAVTVSS VL: DIQMTQSPSSVSASIGDRVTITCKASQDINSFLAWFQQKPGKSPRPLIYRAYRLVDGVPSRFSGVGSGQDYSLTISSLDYEDLGIYYCQQYVEFPPTFGAGTMLELK ? ~0.1 nM

Next record, please: Hu26T-31-PE (antibody, IgG4, V domains shown, also called humanized anti-CD47 antibody Hu26T-31-PE) VH: QVQLVQSGAEVKKPGASVKVSCKASGYTFTDYYMNWVRQAPGQGLEWIGRIYPGSGLTYYNAKFKGRATVTADKSTSTVYMELSSLRSEDTAVYYCARTSYGSSFPHVWGQGTTVTVSS VL: DIQMTQSPSSLSASVGDRVTITCKSSQSLLNVNDQKNYLAWYQQKPGKAPKLLIYFASTRESGVPSRFSGSGSGTDFTLTISSLQPEDFATYYCQQHYSTPLTFGQGTKLEIK ~0.1 nM

Next:
I am curious: what EC50 (read off the curve) value has been reported for Hu34-39-PE (antibody, IgG4, V domains shown, also called humanized anti-CD47 antibody Hu34-39-PE) VH: QVQLQESGPGLVKPSQTLSLTCKASGYTFTNYWITWVKQRPGQGLEWIGDITPGRGETNYNQKFKGRVTLTVDISASTAYMELSSLRSEDTAVYYCSRWGLRRGDYWGQGTSVTVSS VL: EIVLTQSPGTLSLSPGERATLSCRASSSVSSSYLNWYQQKSGASPKLWIYSTSNLASGVPGRFSGSGSGTSYSLTISSVEAEDAATYYCQQYSGYPLTFGAGTKLEVK ? ~0.1 nM

The measurements presented in this section are drawn from patent US20230090014A1.
